FYI, the data here is from patent EP3959200B1.

The following molecules are shown together with reported Viable cells% values.
Tested on: A549 cells
Assay: FITC Annexin V/PI apoptosis detection by flow cytometry
Type: cell-based, human
Settings: at IC50 concentrations

structure: c1cncc(CCc2nnc3n2N=C(c2ccc4ccccc4c2)CS3)c1
Viable cells%, %: 90.3
//
structure: Nn1c(CCc2cccnc2)nnc1SCC(=O)Nc1nc2ccc(F)cc2s1
Viable cells%, %: 91.8
//
structure: Fc1ccc(C2=Nn3c(CCc4cccnc4)nnc3SC2)cc1
Viable cells%, %: 87.6
//
structure: Cc1ccc2nc(NC(=O)CSc3nnc(CCc4cccnc4)n3N)sc2c1
Viable cells%, %: 84.6
//
structure: Nn1c(CCc2cccnc2)nnc1SCC(=O)Nc1nc2ccc(Cl)cc2s1
Viable cells%, %: 87.2
//
structure: Clc1ccc(C2=Nn3c(CCc4cccnc4)nnc3SC2)cc1
Viable cells%, %: 92.5
